Target Or System: Luciferin 4-monooxygenase (Photinus pyralis)
Protocol Summary: firefly luciferase enzyme inhibitors, primary screen, biochemical, luminescence, purified enzyme, 2006 set (AID 1141);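 further: cell-free assay with purified firefly luciferase at 100 ng per well in PBS; test concentration not given here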
Condition Label: SteadyGlo luminescence, 30 min, higher = more signal, called active from +8 up or from −8 down
Calls of active or inactive are those of the source.
Reported Property: z-score

- Compound: "CSCC[C@@H]1NC(=O)CC=C[C@@H](C)COC(=O)[C@@H](C)COC1=O"
  z-score: "-0.343 (inactive)"

Kindly review the next compound as well.
What the record says about CCOC(=O)[C@H](Cc1ccccc1)NC(=O)CCC1CC(OC(=O)NCc2ccc3c(c2)OCO3)CC2(CCCC(COC(=O)NCCc3ccccc3OC)O2)O1 (some centres not stated) : z-score is 0.274 (inactive)

// data source = PubChem BioAssay
